Cited source for all entries: PubChem BioAssay

Collected z-score values appear next to each entry.
# PROTOCOL: JC-1 mitochondrial potential readout, lung cancer cells – cell-based, A549, JC-1 fluorescence, basal, 24 h, 100 nL, profiling panel (AID 1138);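 note: A549 lung adenocarcinoma cells under basal conditions with no added stimulus; test concentration not given here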
# SETUP_CONDITIONS: higher = more signal
Keep the answer to the number alone.

// query For the molecule COc1cc(OC)c(C(O)C2C=CC3C(=O)NC(=O)C3N2Nc2ccccn2)cc1Br (configuration not stated) , what z-score is on record?
// result 0.0938

// query Another molecule to check: COC(=O)[C@@]1(Cc2ccc(F)cc2)[C@H]2c3cc(C(=O)N(C)C)n(Cc4cc(C)n(C)n4)c3C[C@H]2CN1C(=O)c1ccccc1
// result -0.013

// query Another molecule to check: COc1ccc(-c2cc3c(c(Cc4ccccc4)n2)[Si](C(C)C)(C(C)C)OC3)cn1
// result -0.687

// query Another molecule to check: [N-]=[N+]=Nc1ccccc1C[C@@]1(C(=O)N2CCCCC2)N=C(c2ccc(OCCCO)cc2)O[C@@H]1c1ccccc1
// result 1.13

// query Another molecule to check: COCCOC(=O)N1C(=O)[C@@]2(c3cc(C#CC4=CCCCC4)ccc31)[C@H](C(N)=O)[C@H]1C(=O)O[C@H](c3ccccc3)[C@H](c3ccccc3)N1[C@@H]2c1ccc(O)cc1
// result -1.1

// query Another molecule to check: CCCCCCc1nc(-c2ccc(-c3ccc(Cl)c(Cl)c3)o2)c(C)c2c1[Si](C(C)C)(C(C)C)OC2
// result -0.838

// query Another molecule to check: CC(C)OC(=O)C=C1C[C@@H](c2cccc(Cl)c2)O[C@@H](c2cccc(Cl)c2)O1
// result -0.143

* * *

# System: Chordin-like protein 2 (CHRDL2)
# PROTOCOL: compounds binding chordin-like 2 – biochemical, small-molecule microarray, 635 nm fluorescence, primary screen (AID 1126);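 note: printed compound slides probed with Chrdl2 protein at 4 µg/mL for 1 h at 4 C; score merges 667 nm emission intensity with signal to noise over three replicate slides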
# SETUP_CONDITIONS: fluorescence 635 nm, higher = more signal
# if value of composite z-score reaches 0.1, tag class 1; if it stays below, tag class 0

>  <COMPOUND>
CCOc1ccc(N2C(=O)CSC2c2cccc([N+](=O)[O-])c2)cc1 (configuration not stated)

>  <TARGET>
Chordin-like protein 2 (CHRDL2)

>  <CATEGORY_LABEL>
class 1

$$$$
>  <COMPOUND>
COc1ccccc1CN1C(=O)c2ccccc2[C@@]2(Cc3ccccc3N(CCCN(C)C)C2=O)[C@@H]1c1ccc(CO)cc1

>  <TARGET>
Chordin-like protein 2 (CHRDL2)

>  <CATEGORY_LABEL>
class 1

$$$$
>  <COMPOUND>
NCCCCCCNC(=O)[C@H]1C[C@H]2C(=O)N[C@@H](Cc3ccccc3)C(=O)N2[C@H]1c1cccc(OCCO)c1

>  <TARGET>
Chordin-like protein 2 (CHRDL2)

>  <CATEGORY_LABEL>
class 0

$$$$

// query # bool: composite z-score of COc1cc2c(cc1OC)CN(C(=O)[C@H]1[C@@H]3C(=O)O[C@@H](c4ccccc4)[C@@H](c4ccccc4)N3[C@@H](c3ccccc3OCCO)[C@]13C(=O)Nc1ccc(C#CCCO)cc13)CC2 >= 0.1
// result class 1

// query Another compound to check: O=C1O[C@H](c2ccccc2)[C@H](c2ccccc2)N2[C@H]1[C@@H](C(=O)NC[C@H](O)c1ccccc1)[C@]1(C(=O)Nc3ccccc31)[C@H]2c1ccc(O)cc1
// result class 1

* * *

# TARGET: NADPH oxidase 5 (Homo sapiens)
# PROTOCOL: compounds shifting NOX5 Amplex Red fluorescence – cell-based, HEK293-NOX5, NOX inhibitor project, primary screen (AID 1161)
# SETUP_CONDITIONS: HEK293-NOX5, ionomycin, 45 min, higher = more signal
READOUT: z-score
Keep the answer to the number alone.

# annotated cases, reported z-score shown
>  <COMPOUND>
Cc1ccc(/C=C/C=O)cc1

>  <RECORDED_NUMBER>
1.17

$$$$
>  <COMPOUND>
CC(C)(C)OC(=O)CC[C@@]1(C(=O)N2CCCCC2)N=C(c2ccc(OCCCO)cc2)O[C@@H]1c1ccccc1

>  <RECORDED_NUMBER>
0.0911

$$$$
>  <COMPOUND>
C=C(CCCC)/C(=C/C[C@@H](OC(C)=O)c1ccccc1OCCO)c1cc(C(=O)OC)ccc1OC

>  <RECORDED_NUMBER>
-1.36

$$$$
>  <COMPOUND>
C=CCNC(=O)[C@@H]1[C@H]2C(=O)O[C@H](c3ccccc3)[C@H](c3ccccc3)N2[C@H](c2ccc(OCCO)cc2)[C@@]12C(=O)N(C(=O)OCCOC)c1ccc(C#CCNC(N)=O)cc12

>  <RECORDED_NUMBER>
0.0624

$$$$
>  <COMPOUND>
COCCCNC(=O)[C@@]1(Cc2ccccc2)N=C(c2ccc(OCCCO)cc2)O[C@H]1c1ccccc1CN=[N+]=[N-]

>  <RECORDED_NUMBER>
-0.67

$$$$

// query For the compound CCOC(=O)C[C@H]1[C@H](OC(=O)c2ccc(-c3ccccc3)cc2)[C@@H](NC(=O)c2ccccc2)c2cc(OCCCO)ccc2N1C(=O)c1ccc2ccccc2n1 , what z-score is on record?
// result 1.81

// query Another compound to check: O=C1O[C@@H](c2ccccc2)[C@@H](c2ccccc2)N2[C@@H](c3ccc(OCCO)cc3)[C@]3(C(=O)Nc4ccc(C#CCCO)cc43)[C@@H](C(=O)NC[C@H](O)c3ccccc3)[C@H]12
// result 0.235

// query Another compound to check: C=C(CCCC)/C(=C/C[C@H](OC(=O)c1ccncc1)c1ccc(OCCO)cc1)c1cc(C(=O)OC)ccc1OC
// result -2.54

// query Another compound to check: O=C1NC(=O)C2C1C=CC(C(O)c1ccc(-c3ccccc3)s1)N2Nc1ccc(Cl)cc1Cl (stereo not given)
// result -0.664

// query Another compound to check: CC(C)[Si](C#C[Si](C(C)C)(C(C)C)C(C)C)(O[C@H](C)c1cn(Cc2ccccc2)nn1)C(C)C
// result -2.82

// query Another compound to check: C[N+](C)(C)CCCC[C@@H]1NC(=O)[C@@H]2C[C@H](C(=O)NCCCCCCNC(=O)CS)[C@H](c3ccc(O)cc3)N2C1=O
// result 0.0101

// query Another compound to check: CCCCC(O)C1C=CC2C(=O)N(C)C(=O)C2N1N1CCCCC1 (stereo not given)
// result -1.03

* * *

# TARGET: NADPH oxidase 2 (Homo sapiens) (UniProt P04839)
# Sequence (P04839 whole entry, looked up): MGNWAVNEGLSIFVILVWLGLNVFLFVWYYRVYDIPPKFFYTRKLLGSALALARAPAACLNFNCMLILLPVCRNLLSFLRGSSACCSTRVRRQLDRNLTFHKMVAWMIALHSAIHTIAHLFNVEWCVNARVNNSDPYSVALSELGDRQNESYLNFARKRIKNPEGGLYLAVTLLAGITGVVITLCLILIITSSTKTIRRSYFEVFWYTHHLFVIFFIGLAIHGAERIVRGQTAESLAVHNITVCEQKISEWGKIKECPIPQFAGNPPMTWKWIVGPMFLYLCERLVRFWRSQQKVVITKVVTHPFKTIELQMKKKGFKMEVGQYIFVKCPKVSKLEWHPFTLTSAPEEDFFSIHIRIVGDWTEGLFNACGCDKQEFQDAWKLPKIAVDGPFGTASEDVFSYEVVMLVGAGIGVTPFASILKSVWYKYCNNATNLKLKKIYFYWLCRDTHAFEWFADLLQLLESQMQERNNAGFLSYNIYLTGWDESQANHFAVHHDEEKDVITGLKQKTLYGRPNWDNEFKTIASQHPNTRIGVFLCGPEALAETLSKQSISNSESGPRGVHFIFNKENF
# PROTOCOL: compounds shifting NOX2 Amplex Red fluorescence – cell-based, HEK293-NOX2, PMA-stimulated, NOX inhibitor project, primary screen (AID 1159); note: test concentration not given here
# SETUP_CONDITIONS: 45 min, higher = more signal, called active from +8 up or from −8 down
The source made the active and inactive calls.
READOUT: z-score

# annotated cases, reported z-score shown
>  <COMPOUND>
C=CC[C@]1(C(=O)NCc2ccccc2)N=C(c2ccc(OCCCO)cc2)O[C@H]1c1ccccc1CN=[N+]=[N-]

>  <z-score>
-0.302 (inactive)

$$$$
>  <COMPOUND>
CCCC(=O)N(CCc1c[nH]c2ccccc12)[C@@H]1CC(C(=O)NCCO)=C[C@H](Oc2c(I)cc(CO)cc2OC)[C@H]1O

>  <z-score>
-0.674 (inactive)

$$$$
>  <COMPOUND>
[N-]=[N+]=Nc1ccccc1C[C@]1(C(=O)N2CCCCC2)COC(c2ccc(OCCCO)cc2)=N1

>  <z-score>
-4.46 (inactive)

$$$$

Kindly consider the entry below.
// query For the compound O=C1OCCC=C[C@H]2OC34C=CCN(Cn5nnc6ccccc65)C(=O)[C@H]3N(CCO)C(=O)[C@@H]4C12 (some centres undefined) , what z-score is on record?
// result 1.55 (inactive)

* * *

# PROTOCOL: blood-stage malaria parasite viability loss – strain 3D7, DAPI fluorescence, 100 nL, primary screen (AID 1184);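 note: parasites grown inside human red blood cells in medium with human serum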
# SETUP_CONDITIONS: P. falciparum 3D7 growth, 3 d, higher = more signal
Collected z-score values appear next to each entry.
Keep the answer to the number alone.

# annotated cases, reported z-score shown
>  <COMPOUND>
COc1ccc(-c2cc3c(c(Cc4ccccc4)n2)[Si](C(C)C)(C(C)C)OC3)cn1

>  <RECORDED_NUMBER>
-2.79

$$$$
>  <COMPOUND>
OCC1C=C(/C=C/c2ccccc2)CN1Cc1ccccc1Br (stereo not drawn)

>  <RECORDED_NUMBER>
-0.982

$$$$
>  <COMPOUND>
CC(C)[Si](C#C[Si](C(C)C)(C(C)C)C(C)C)(O[C@H](C)c1cn(Cc2ccccc2)nn1)C(C)C

>  <RECORDED_NUMBER>
1.59

$$$$
>  <COMPOUND>
CC(C)(C)OC(=O)CC[C@]1(C(=O)NCCN2CCOCC2)COC(c2ccc(OCCCO)cc2)=N1

>  <RECORDED_NUMBER>
0.51

$$$$
>  <COMPOUND>
[N-]=[N+]=NCc1ccccc1[C@@H]1OC(c2ccc(OCCCO)cc2)=N[C@]1(CCS(=O)(=O)c1ccccc1)C(=O)N1CCOCC1

>  <RECORDED_NUMBER>
-2.36

$$$$

// query For the compound [N-]=[N+]=NCc1ccccc1[C@@H]1OC(c2ccc(OCCCO)cc2)=N[C@]1(CCS(=O)(=O)c1ccccc1)C(N)=O , what z-score is on record?
// result -0.397

// query Another compound to check: C=CC[C@]12N=C(c3ccc(OCCCO)cc3)O[C@H]1c1ccccc1N(CCS(=O)(=O)c1ccccc1)C2=O
// result -1.57

// query Another compound to check: CC(C)[Si](C#CCCCC#N)(O[C@H](c1ccccc1)c1cn(Cc2cccc(Cl)c2)nn1)C(C)C
// result -1.06
